- measured.target: T1, Cynomolgous monkey (cyno) TF-ECD with His Tag (cynomolgus monkey, UniProt P13726 33-251 (human entry))
- T1 construct: also called cyno antigen
- T1 chain: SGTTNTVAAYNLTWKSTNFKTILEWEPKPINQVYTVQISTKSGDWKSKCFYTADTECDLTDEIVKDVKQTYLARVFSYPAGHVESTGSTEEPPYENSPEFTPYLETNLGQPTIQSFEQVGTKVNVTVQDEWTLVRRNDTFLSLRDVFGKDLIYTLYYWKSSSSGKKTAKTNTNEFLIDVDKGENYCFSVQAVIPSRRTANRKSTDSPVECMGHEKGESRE
- experimental.protocol: TF-ECD binding ELISA, chemiluminescent
EC50 values, listed per item
Please give a number only; it is taken to be in µg/mL.

M10 (antibody, V domains shown, complete MAb; FR4 is its own entry; also called H15/L3) VH: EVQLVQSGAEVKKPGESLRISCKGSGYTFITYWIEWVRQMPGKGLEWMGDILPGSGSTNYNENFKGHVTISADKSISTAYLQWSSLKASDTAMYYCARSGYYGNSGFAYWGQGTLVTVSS VL: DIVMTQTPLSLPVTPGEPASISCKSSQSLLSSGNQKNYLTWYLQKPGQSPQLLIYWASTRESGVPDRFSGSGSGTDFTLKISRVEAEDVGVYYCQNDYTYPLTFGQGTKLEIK :: 0.0196
M11 (antibody, V domains shown, complete MAb; FR4 is its own entry; also called H15/L4) VH: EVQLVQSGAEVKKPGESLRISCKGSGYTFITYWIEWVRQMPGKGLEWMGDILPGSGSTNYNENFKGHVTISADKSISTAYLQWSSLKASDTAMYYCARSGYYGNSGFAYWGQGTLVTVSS VL: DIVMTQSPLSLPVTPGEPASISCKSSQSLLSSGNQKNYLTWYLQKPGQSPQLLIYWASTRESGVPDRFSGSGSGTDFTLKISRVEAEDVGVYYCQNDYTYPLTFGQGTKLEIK :: 0.0187

Now consider a different binder.
Query :: Returns the measured EC50 for the input binder. Input: M61 (antibody, V domains shown, complete MAb; FR4 is its own entry; also called H22/L5) VH: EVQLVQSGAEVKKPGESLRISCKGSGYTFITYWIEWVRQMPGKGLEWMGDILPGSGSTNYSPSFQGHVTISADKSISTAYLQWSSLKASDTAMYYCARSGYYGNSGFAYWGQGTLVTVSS VL: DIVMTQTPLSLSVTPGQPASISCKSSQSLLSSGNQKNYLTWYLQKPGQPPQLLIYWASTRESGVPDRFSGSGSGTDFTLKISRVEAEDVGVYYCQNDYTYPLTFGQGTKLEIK
Result :: 0.0241
